- test.target: Protein AF-9 (Homo sapiens) (UniProt P42568)
- Sequence (P42568 whole entry, looked up): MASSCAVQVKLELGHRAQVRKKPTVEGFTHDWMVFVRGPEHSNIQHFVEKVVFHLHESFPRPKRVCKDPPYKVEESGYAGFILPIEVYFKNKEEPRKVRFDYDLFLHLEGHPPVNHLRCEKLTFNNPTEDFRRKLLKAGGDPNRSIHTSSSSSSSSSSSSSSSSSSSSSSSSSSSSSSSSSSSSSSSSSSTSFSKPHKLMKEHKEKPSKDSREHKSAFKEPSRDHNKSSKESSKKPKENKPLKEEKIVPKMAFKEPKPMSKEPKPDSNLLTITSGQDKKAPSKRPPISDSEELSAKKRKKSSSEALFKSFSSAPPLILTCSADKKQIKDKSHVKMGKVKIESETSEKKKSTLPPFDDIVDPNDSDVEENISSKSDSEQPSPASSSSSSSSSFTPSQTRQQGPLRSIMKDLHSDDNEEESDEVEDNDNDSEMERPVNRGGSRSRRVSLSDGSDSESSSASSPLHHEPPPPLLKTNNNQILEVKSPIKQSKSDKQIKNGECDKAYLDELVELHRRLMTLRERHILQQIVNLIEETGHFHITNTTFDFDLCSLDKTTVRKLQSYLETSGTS
- assay.procedure: MLL-AF4/AF9 protein interaction blockers – biochemical, AlphaScreen, biotin-AF4 peptide, FLAG-AF9, single point, primary screen (AID 651704);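 note: 0% = plate neutral control median and 100% = total signal loss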
- condition.label: biotin-AF4 peptide binding to FLAG-AF9, at 10 µM, stronger effect = higher value
Screen size: about 350,000 compounds; about 1,600 (0.46%) were called active. For the sample, actives were picked, then their nearest neighbours and some compounds at random.
endpoint: inhibition (%)
// note: answer is a bare numeric in %

The compound "CN(C)CCNC(=O)c1ccc(-c2cn3c(-c4ccc(Oc5ccccc5)cc4)cnc3cn2)cc1" showed inhibition equal to 34.2

The compound "CCC(=O)Nc1ccc2c(c1)C(=O)N(C)[C@@H]1CC[C@@H](CC(=O)NCCN3CCCCC3)O[C@@H]1CO2" showed inhibition equal to 0.544

The compound "CCCN1[C@@H]2c3ccc(-c4ccccc4)c(=O)n3C[C@@H]2[C@@H](CO)[C@@H]1C(=O)N(C)C" showed inhibition equal to -2.05

The compound CN(C)C(CNC(=O)c1ccc(OCc2cn3ccccc3n2)cc1)c1ccco1 (stereo not given) showed inhibition equal to 0.31

The compound COc1cccc(C2c3[nH]c4ccccc4c3CCN2Cc2cccc(C)n2)c1 (stereo not given) showed inhibition equal to 16.4

---

Consider the following molecules; for each one, report its inhibition.
- test.target: Protein AF-9 (Homo sapiens)
- assay.procedure: MLL-AF4/AF9 protein interaction blockers – biochemical, AlphaScreen, biotin-AF4 peptide, FLAG-AF9, single point, primary screen (AID 651704);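 note: 0% = plate neutral control median and 100% = total signal loss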
- condition.label: biotin-AF4 peptide binding to FLAG-AF9, at 10 µM, stronger effect = higher value
Out of some 350,000 compounds screened, about 1,600 (0.46%) were called active. The entries come from a sample that favours actives as a whole.
// note: answer is a bare numeric in %

The molecule "CCC(=O)N1C[C@@H](C)[C@H](OC)CN(C)C(=O)c2cc(NC(=O)NC3CCCC3)ccc2OC[C@H]1C" showed inhibition equal to -2.77

The molecule "Cc1ccc(NC(=O)c2ccco2)cc1" showed inhibition equal to 2.52

The molecule "O=C([C@H]1N[C@H]2c3ccc(-c4ccccc4)c(=O)n3C[C@H]2[C@@H]1CO)N1CCOCC1" showed inhibition equal to -1.96

The molecule O=C1CC[C@@H]2CC3(C[C@@H]4CCN1[C@H]24)Nc1cc([N+](=O)[O-])ccc1NC3=NC1CCCCC1 (stereo not given in full) showed inhibition equal to 5.39

The molecule "CC(C)CC#Cc1cnc2c(c1)C(=O)N([C@@H](C)CO)C[C@@H](C)[C@@H](CN(C)C(=O)c1cccnc1)O2" showed inhibition equal to -2.62

---

- test.target: Protein AF-9 (Homo sapiens)
- assay.procedure: MLL-AF4/AF9 protein interaction blockers – biochemical, AlphaScreen, biotin-AF4 peptide, FLAG-AF9, single point, primary screen (AID 651704);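 note: 0% = plate neutral control median and 100% = total signal loss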
- condition.label: biotin-AF4 peptide binding to FLAG-AF9, at 10 µM
Out of some 350,000 compounds screened, about 1,600 (0.46%) were called active.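 How the source made its calls: active means every replicate reaching a set inhibition limit, whatever the replicate mean (cut at about 25% in these data); inconclusive means mean inhibition reaches that limit but some replicates miss it; inactive means the rest.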 Only a selection was taken, and actives are over-represented in it overall.
Tick one outcome: active, inactive

Asked: For "O=C(C[C@@H]1CC[C@H](NC(=O)c2ccncc2)[C@@H](CO)O1)Nc1ccc(-c2ccccc2)cc1" , what call appears in the results of this test?
Given back: inactive

Asked: For "O=C(c1ccccn1)N1CC2(C1)[C@@H](c1ccccc1)[C@@H](CO)N2C(=O)C1CCC1" , what call appears in the results of this test?
Given back: inactive

Asked: For "COc1cc2c(cc1NC(=O)COC(=O)/C=C/c1ccccc1)oc1ccccc12" , what call appears in the results of this test?
Given back: active

Asked: For "N#C[C@@H]1[C@H](c2ccccc2-c2cccc(F)c2)[C@@H](CO)N1C(=O)CN1CCOCC1" , what call appears in the results of this test?
Given back: inactive

Asked: For "CN1CCN(C(=O)C[C@H]2C[C@@H]3c4cc(NC(=O)Nc5ccc(C(F)(F)F)cc5)ccc4O[C@@H]3[C@H](CO)O2)CC1" , what call appears in the results of this test?
Given back: inactive

Asked: For "C[C@@H]1CCCCO[C@H](CN(C)C(=O)Nc2ccc3c(c2)OCO3)[C@@H](C)CN([C@@H](C)CO)C(=O)c2cc(NC(=O)CCC(F)(F)F)ccc2O1" , what call appears in the results of this test?
Given back: inactive

Asked: For "Cc1noc(C)c1NC(=O)Nc1ccc2c(c1)CC(=O)N([C@H](C)CO)C[C@@H](C)[C@@H](CN(C)S(=O)(=O)c1ccc(Cl)cc1)O2" , what call appears in the results of this test?
Given back: inactive

Asked: For "C[C@@H]1CN([C@@H](C)CO)C(=O)c2c(c3ccccc3n2C)-c2ccccc2CO[C@@H]1CN(C)Cc1cccc(C(=O)O)c1" , what call appears in the results of this test?
Given back: inactive

Asked: For "CCNC(=O)C[C@H]1CC[C@@H](NC(=O)C2CCOCC2)[C@@H](CO)O1" , what call appears in the results of this test?
Given back: inactive

Asked: For "COc1cc(CN2CC3(CN(S(=O)(=O)c4cn(C)cn4)C3)c3c(n(C)c4cc(OC)ccc34)[C@H]2CO)cc(OC)c1" , what call appears in the results of this test?
Given back: inactive

Asked: For "C[C@@H]1CN([C@H](C)CO)C(=O)c2c(c3ccccc3n2C)-c2ccccc2CO[C@@H]1CN(C)Cc1ccc(F)cc1" , what call appears in the results of this test?
Given back: inactive

Asked: For "CN1C(=O)c2cc(NC(=O)c3ccno3)ccc2OC[C@H]2O[C@@H](CC(=O)NCC(F)(F)F)CC[C@@H]21" , what call appears in the results of this test?
Given back: inactive

Asked: For "O=C(C1CCCCC1)N1CC(=O)N2[C@H](CO)[C@@H](c3ccc(C#Cc4cccc(F)c4)cc3)[C@@H]2C1" , what call appears in the results of this test?
Given back: inactive

Asked: For "Cc1ccc(S(=O)(=O)NCC[C@H]2CC[C@H](NC(=O)c3ccccn3)[C@H](CO)O2)cc1" , what call appears in the results of this test?
Given back: inactive

Asked: For "C[C@@H]1CN([C@@H](C)CO)C(=O)c2c(c3ccccc3n2C)-c2ccccc2CO[C@@H]1CN(C)Cc1ccc2c(c1)OCCN2C" , what call appears in the results of this test?
Given back: active

Asked: For "CN(C)C(=O)c1cccc(-c2ccc([C@H]3[C@H](CO)N4C(=O)CN(C(=O)C5CCCCC5)C[C@@H]34)cc2)c1" , what call appears in the results of this test?
Given back: inactive

---

Consider the following compounds; for each one, report its inhibition.
- test.target: Protein AF-9 (Homo sapiens)
- assay.procedure: MLL-AF4/AF9 protein interaction blockers – biochemical, AlphaScreen, biotin-AF4 peptide, FLAG-AF9, single point, primary screen (AID 651704);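 note: 0% = plate neutral control median and 100% = total signal loss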
- condition.label: biotin-AF4 peptide binding to FLAG-AF9, at 10 µM, stronger effect = higher value
About 1,600 (0.46%) of roughly 350,000 compounds were called active. The list comes from a sample in which actives are over-represented; it also holds close analogues and randomly drawn compounds.
// note: answer is a bare numeric in %

The compound "COc1ccc2c3c([nH]c2c1)[C@H](CO)N(C(=O)Nc1ccc(F)cc1)CC31CCN(CC2CCOCC2)CC1" showed inhibition equal to 11

The compound "O=C(N[C@H]1CC[C@H](CCn2cc(C3(O)CCCC3)nn2)O[C@H]1CO)C1CC1" showed inhibition equal to -0.223

The compound "CNC(=O)CN1C(=O)NC(c2ccccc2)(c2ccccc2)C1=O" showed inhibition equal to 0.637

The compound "Cc1ccc(Nc2nc(Cl)c(C=O)s2)cc1" showed inhibition equal to -4.45

The compound "COc1ccc(OCC(=O)Nc2ccc(N3CCC(C)CC3)cc2)cc1" showed inhibition equal to 1.34

---

- test.target: Protein AF-9 (Homo sapiens) (UniProt P42568)
- assay.procedure: MLL-AF4/AF9 protein interaction blockers – biochemical, AlphaScreen, biotin-AF4 peptide, FLAG-AF9, single point, primary screen (AID 651704);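 note: 0% = plate neutral control median and 100% = total signal loss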
- condition.label: biotin-AF4 peptide binding to FLAG-AF9, at 10 µM
Screen size: about 350,000 compounds; about 1,600 (0.46%) were called active.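 How the source made its calls: active means every replicate reaching a set inhibition limit, whatever the replicate mean (cut at about 25% in these data); inconclusive means mean inhibition reaches that limit but some replicates miss it; inactive means the rest.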 The sample as a whole holds a higher share of actives than the screen did.
Tick one outcome: label 1 = active, label 0 = inactive

Asked: For "CC(C)NC(=O)N(C)C[C@H]1OCCCC[C@H](C)Oc2ccc(NS(=O)(=O)c3ccc(Cl)cc3)cc2C(=O)N([C@@H](C)CO)C[C@H]1C" , what call appears in the results of this test?
Given back: label 0

Asked: For O=S(=O)(NC1CCCCC1N1CCN(c2ccccc2F)CC1)c1ccccc1 (stereo not drawn) , what call appears in the results of this test?
Given back: label 0

Asked: For "COc1ccc(C(=O)COC(=O)c2ccc([N+](=O)[O-])s2)cc1OC" , what call appears in the results of this test?
Given back: label 0

Asked: For "O=C(Nc1ccccc1)C1CCN(C(=O)c2ccc(Br)cc2)CC1" , what call appears in the results of this test?
Given back: label 0

Asked: For "CN(C)C(=O)c1cccc(-c2ccc3c(c2)[C@H]2[C@H](CCN2S(=O)(=O)c2cn(C)cn2)[C@@H](CO)N3)c1" , what call appears in the results of this test?
Given back: label 0

Asked: For "O=C1Nc2cc(C(=O)N3CCC(N4CCCCC4)CC3)ccc2S/C1=C\c1ccccc1" , what call appears in the results of this test?
Given back: label 1

Asked: For "CC(C)(C)[S@](=O)N1Cc2cc(C(=O)N[C@@H]3CCN(Cc4ccccc4)C3)nc(-c3cccc(-c4ccncc4)c3)c2[C@@H]1CCO" , what call appears in the results of this test?
Given back: label 0

Asked: For "N#C[C@@H]1[C@@H](c2ccccc2C2=CCCC2)[C@H](CO)N1C(=O)NC1CCCC1" , what call appears in the results of this test?
Given back: label 0

Asked: For "CN(Cc1c(F)cccc1Cl)C(=O)CNC(=O)c1ccc2c(c1)OCO2" , what call appears in the results of this test?
Given back: label 1

Asked: For "CCC(=O)N1CC2(C1)[C@@H](c1ccc(-c3ccc(C#N)cc3)cc1)[C@H](CO)N2C(C)=O" , what call appears in the results of this test?
Given back: label 0

Asked: For "O=C(NCCc1ccc(C(F)(F)F)cc1)c1ccc2c(c1)OCO2" , what call appears in the results of this test?
Given back: label 0

Asked: For "CO[C@@H]1CN(C)C(=O)c2ccc(NC(=O)NC(C)C)cc2OC[C@@H](C)N(C)C[C@H]1C" , what call appears in the results of this test?
Given back: label 0

Asked: For "COc1ccccc1NC(=O)N1CCCCN2[C@H](CO)[C@H](c3ccc(C#CC4CC4)cc3)[C@@H]2C1" , what call appears in the results of this test?
Given back: label 0

Asked: For "CC1CCN(C(=O)c2ccc3c(c2)NC(=O)CN3)CC1" , what call appears in the results of this test?
Given back: label 0

Asked: For "CCCNC(=O)C[C@H]1C[C@H]2c3cc(NC(=O)NC4CCCCC4)ccc3O[C@H]2[C@H](CO)O1" , what call appears in the results of this test?
Given back: label 0

Asked: For "Cc1cccc(C)c1NC(=O)CNC(=O)c1ccc2c(c1)OCCO2" , what call appears in the results of this test?
Given back: label 0

Asked: For "C/C=C/c1ccc([C@@H]2[C@@H](CO)N(C(=O)CN(C)C)C23CN(C(=O)C2CCCC2)C3)cc1" , what call appears in the results of this test?
Given back: label 0

Asked: For COc1ccc(N2CCN(C3CCCCC3NS(=O)(=O)c3ccccc3)CC2)cc1 (stereo not drawn) , what call appears in the results of this test?
Given back: label 1
